# method description: Elimination half life after i.v. administration of compound in rats
# Assay type: ADME, organism-based
# run conditions: rat, in vivo, iv
quantity measured: half-life (h)
Unit h implied. Number only.

Consider the reported half-life for these molecules:
{"columns": ["chemical string", "measurement units", "val"],
 "data": [
  ["Cl.S/C(=N\\CCc1ccccn1)c1cccnc1S", "h", 2.22],
  ["OCC/N=C(\\S)c1cccnc1S", "h", 0.67]
]}

With those in mind, consider the next molecule.
Quick one: half-life of CN(C)CC/N=C(\S)c1cccnc1S.Cl ?
2.72

----------
# MIC annotations
# Tested on: Mycobacterium avium
# method description: In vitro antibacterial activity of compound against Mycobacterium avium MAC ISS-486 (wild type strain) isolated from infected patients.
# Format: functional
Unit µg/mL implied. Number only.

{"columns": ["chemical string", "MIC (µg/mL)"],
 "data": [
  ["CC[C@@H](CO)NCCN[C@@H](CC)CO", 2]
]}

Please state recorded MIC (tested on Mycobacterium avium) of OCC/N=C(\S)c1cccnc1S
8

Please state recorded MIC (tested on Mycobacterium avium) of CCCCCCC/N=C(\S)c1cccnc1S
4

Please state recorded MIC (tested on Mycobacterium avium) of Cl.S/C(=N\CCc1ccccn1)c1cccnc1S
8

Please state recorded MIC (tested on Mycobacterium avium) of CC/N=C(\S)c1cccnc1S
4

----------
# MRT annotations
# method description: Mean residence time (Pharmacokinetic property) after i.v. administration in rats
# Type: ADME, organism-based
# run conditions: rat, in vivo, iv
Unit h implied. Number only.

{"columns": ["chemical string", "measurement units", "val"],
 "data": [
  ["CN(C)CC/N=C(\\S)c1cccnc1S.Cl", "h", 2.83]
]}

Quick one: MRT of OCC/N=C(\S)c1cccnc1S ?
0.72

Quick one: MRT of Cl.S/C(=N\CCc1ccccn1)c1cccnc1S ?
1.77

----------
# method description: Clearance rate after i.v. administration in rats
# Type: ADME, organism-based
# run conditions: rat, in vivo, iv
quantity measured: clearance (L/h/kg)
Unit L/h/kg implied. Number only.

Consider the reported clearance for these compounds:
{"columns": ["chemical string", "measurement units", "clearance"],
 "data": [
  ["Cl.S/C(=N\\CCc1ccccn1)c1cccnc1S", "L/h/kg", 8.66],
  ["OCC/N=C(\\S)c1cccnc1S", "L/h/kg", 5.59],
  ["CCCCCCC/N=C(\\S)c1cccnc1S", "L/h/kg", 3]
]}

Quick one: clearance of CN(C)CC/N=C(\S)c1cccnc1S.Cl ?
3.65

Quick one: clearance of CC/N=C(\S)c1cccnc1S ?
1.2

----------
# method description: Volume of steady state distribution after i.v. administration in rats
# Assay type: ADME, organism-based
# run conditions: rat, in vivo, iv; read-out: Vss
quantity measured: Vd (L/kg)
Unit L/kg implied. Number only.

{"columns": ["chemical string", "quantity measured", "measurement units", "val"],
 "data": [
  ["CC/N=C(\\S)c1cccnc1S", "Vd", "L/kg", 0.93],
  ["CN(C)CC/N=C(\\S)c1cccnc1S.Cl", "Vd", "L/kg", 11.2],
  ["CCCCCCC/N=C(\\S)c1cccnc1S", "Vd", "L/kg", 1.28],
  ["OCC/N=C(\\S)c1cccnc1S", "Vd", "L/kg", 4.17]
]}

With those in mind, consider the next compound.
Quick one: Vd of Cl.S/C(=N\CCc1ccccn1)c1cccnc1S ?
14.5

----------
# method description: Area under the curve (Concentration) was determined for the compound as AUC with limits 0-8 after i.v. administration in rats
# Assay type: ADME, organism-based
# Set-up: route intravenous
# run conditions: rat, in vivo, iv
// not fulfilled strictly below 8000 ng·h/mL in AUC; fulfilled otherwise

// below: answered compounds
{"columns": ["chemical string", "label value"],
 "data": [
  ["OCC/N=C(\\S)c1cccnc1S", "not fulfilled"],
  ["Cl.S/C(=N\\CCc1ccccn1)c1cccnc1S", "not fulfilled"],
  ["CN(C)CC/N=C(\\S)c1cccnc1S.Cl", "not fulfilled"],
  ["CC/N=C(\\S)c1cccnc1S", "fulfilled"]
]}

Please turn your attention to the following entry.
Item CCCCCCC/N=C(\S)c1cccnc1S with AUC of 8000 ng·h/mL or above?
fulfilled

----------
# LD50 annotations
# method description: Toxicity after intraperitoneal administration in rats and mice
# run conditions: rodentia, in vivo, ip

{"columns": ["chemical string", "val"],
 "data": [
  ["OCC/N=C(\\S)c1cccnc1S", "> 2000 mg/kg"]
]}

Quick one: LD50 of Cl.S/C(=N\CCc1ccccn1)c1cccnc1S ?
> 2000 mg/kg

Quick one: LD50 of CN(C)CC/N=C(\S)c1cccnc1S.Cl ?
> 2000 mg/kg
